Data provenance: paper PMC12040169

test: in vitro; conditions: human, hela cells, % viability
quantity_name: viability at 28.5 h, 10 µM (%)

[[record]]
molecule = "Cc1[nH]c2ccccc2c1/C=N/c1cccc2c(/N=C/c3c(C)[nH]c4ccccc34)cccc12"
quantity_name = "viability at 28.5 h, 10 µM"
units = "%"
endpoint_result = 97.6

[[record]]
molecule = "O=C(Cn1cccn1)NCC(c1ccccc1Cl)N1CCOCC1 (stereo not drawn)"
quantity_name = "viability at 28.5 h, 10 µM"
units = "%"
endpoint_result = 93.1

[[record]]
molecule = "O=C(Nc1ccc(O)c(-c2nc3ccccc3o2)c1)c1ccc(-c2ccc([N+](=O)[O-])cc2)o1"
quantity_name = "viability at 28.5 h, 10 µM"
units = "%"
endpoint_result = 96.4

[[record]]
molecule = "CC(C)(C)S(=O)(=O)Nc1nccnc1-c1cccs1"
quantity_name = "viability at 28.5 h, 10 µM"
units = "%"
endpoint_result = 107

[[record]]
molecule = "CCCC(=O)c1ccc(S(=O)(=O)N2CCN(Cc3ccc(F)c(C(F)(F)F)c3)CC2)cc1"
quantity_name = "viability at 28.5 h, 10 µM"
units = "%"
endpoint_result = 101

[[record]]
molecule = "CCN(CC)CCC(=O)c1ccc(Cl)cc1 [CBK015906C]"
quantity_name = "viability at 28.5 h, 10 µM"
units = "%"
endpoint_result = 101

[[record]]
molecule = "Cc1cc(NC(=O)CN2CCC(Cc3ccccc3)CC2)nc2c1c(=O)oc1ccccc12"
quantity_name = "viability at 28.5 h, 10 µM"
units = "%"
endpoint_result = 87.2

[[record]]
molecule = "Cc1ccc2oc(-c3cccc(NC(=O)c4ccc(-c5ccc([N+](=O)[O-])cc5)o4)c3C)nc2c1"
quantity_name = "viability at 28.5 h, 10 µM"
units = "%"
endpoint_result = 103

[[record]]
molecule = "CN(C)C(=O)Cn1c(=O)n(Cc2cccs2)c2ncccc21"
quantity_name = "viability at 28.5 h, 10 µM"
units = "%"
endpoint_result = 81.7

[[record]]
molecule = "COc1ccccc1C(NC(=O)C1CCN(CCc2c[nH]c3ccccc23)CC1)c1ccccn1 (stereo not drawn)"
quantity_name = "viability at 28.5 h, 10 µM"
units = "%"
endpoint_result = 87.8

[[record]]
molecule = "Cc1ccc(S(=O)(=O)Nc2ccc(Nc3cc(-c4cccc5oc6ccccc6c45)ncn3)cc2)cc1"
quantity_name = "viability at 28.5 h, 10 µM"
units = "%"
endpoint_result = 91.1

[[record]]
molecule = "COC(=O)[C@@H](C)NC(=O)[C@H]1CN(C(=O)Nc2ccccc2)CCN1C(C)=O"
quantity_name = "viability at 28.5 h, 10 µM"
units = "%"
endpoint_result = 86.3

[[record]]
molecule = "O=C(CN(c1cccc(Cl)c1)S(=O)(=O)c1ccccc1)NN=C1CCCCCC1"
quantity_name = "viability at 28.5 h, 10 µM"
units = "%"
endpoint_result = 89.9

[[record]]
molecule = "Fc1ccc(CCN2CCC(Oc3nccnc3OCCN3CCOCC3)CC2)cc1 [CBK082937T]"
quantity_name = "viability at 28.5 h, 10 µM"
units = "%"
endpoint_result = 88.3

[[record]]
molecule = "CCc1c(C)sc(NC(=O)c2ccc(Br)o2)c1C#N"
quantity_name = "viability at 28.5 h, 10 µM"
units = "%"
endpoint_result = 83.6

[[record]]
molecule = "NC(=O)c1cccc(-c2nc(-c3ccc(F)cc3F)cnc2N)c1"
quantity_name = "viability at 28.5 h, 10 µM"
units = "%"
endpoint_result = 86.5

[[record]]
molecule = "CC12CN3CC(C)(CN(C1)C3c1cccc([N+](=O)[O-])c1)C2=O (stereo not drawn)"
quantity_name = "viability at 28.5 h, 10 µM"
units = "%"
endpoint_result = 88.9

[[record]]
molecule = "O=C1c2ccccc2C(=O)N1CCOc1nccnc1-c1cnn(Cc2ccccc2)c1"
quantity_name = "viability at 28.5 h, 10 µM"
units = "%"
endpoint_result = 102

